Recorded MIC, one value per entry.
Test system: Nakaseomyces glabratus
Assay: Antifungal activity against Candida glabrata ATCC 90030 after 48 hrs by broth microdilution method in presence of 0.2% glycerol
Type: functional
Conditions: ATCC 90030, 48 h
*1 amine or outer side, *2 acyl side, *3 side chain or, on linkers, in order; H or OH if unused. Where a SMILES comes first, the peptide text is derived from it. Bridges are numbered along the chain shown (N, C = ends). [ ]: non-standard residue; d: D form. The star is where a group is joined. hTyr(3S-OH,4S-OH,3'-OSO3H) = N[C@H](C(=O)O)[C@H](O)[C@@H](O)c1ccc(O)c(OS(=O)(=O)O)c1; Orn(4R-OH,5R-OH) = O=C([C@H](C[C@@H](O)[C@@H](O)N[*:3])N[*:1])[*:2]; Pro(3S-OH,4S-Me) = C[C@H]1CN[C@H](C(=O)O)[C@H]1O; X1 = CCCCCOc1ccc(-c2cc(-c3ccc(C(=O)*)cc3)no2)cc1; Gln(3R-OH) = NC(=O)C[C@@H](O)[C@H](N)C(=O)O; Hyp = O=C(O)[C@@H]1C[C@@H](O)CN1
The reply should contain only the number, in µg/mL.

A selection of reference data follows.
compound	MIC (µg/mL)
OC(Cn1cncn1)(Cn1cncn1)c1ccc(F)cc1F [FLUCONAZOLE]	4
CCCCCOc1ccc(-c2cc(-c3ccc(C(=O)N[C@H]4C[C@@H](O)[C@@H](O)NC(=O)[C@@H]5[C@@H](O)[C@@H](C)CN5C(=O)[C@H]([C@H](O)CC(N)=O)NC(=O)[C@H]([C@H](O)[C@@H](O)c5ccc(O)c(OS(=O)(=O)O)c5)NC(=O)[C@@H]5C[C@@H](O)CN5C(=O)[C@H]([C@@H](C)O)NC4=O)cc3)no2)cc1 [MICAFUNGIN] (X1-[Orn(4R-OH,5R-OH)]T[Hyp][hTyr(3S-OH,4S-OH,3'-OSO3H)][Gln(3R-OH)][Pro(3S-OH,4S-Me)]; lactam 1-C)	0.125
C[C@@H]1[C@H](O)[C@@H](C)/C=C/C=C/C=C/C=C/C=C/C=C/C=C/[C@H](O[C@@H]2O[C@H](C)[C@@H](O)[C@H](N)[C@@H]2O)C[C@@H]2O[C@](O)(C[C@@H](O)C[C@@H](O)[C@H](O)CC[C@@H](O)C[C@@H](O)CC(=O)O[C@H]1C)C[C@H](O)[C@H]2C(=O)O [AMPHOTERICIN B]	1

Read the next record carefully.
Entry under review: `N=C(N)c1ccc(OCCCC2CCN(CCCOc3ccc(C(=N)N)cc3)CC2)cc1` . Reported MIC?
0.0005
